- target: UniProt:P0C6X1
- Sequence (P0C6X1 2966-3267): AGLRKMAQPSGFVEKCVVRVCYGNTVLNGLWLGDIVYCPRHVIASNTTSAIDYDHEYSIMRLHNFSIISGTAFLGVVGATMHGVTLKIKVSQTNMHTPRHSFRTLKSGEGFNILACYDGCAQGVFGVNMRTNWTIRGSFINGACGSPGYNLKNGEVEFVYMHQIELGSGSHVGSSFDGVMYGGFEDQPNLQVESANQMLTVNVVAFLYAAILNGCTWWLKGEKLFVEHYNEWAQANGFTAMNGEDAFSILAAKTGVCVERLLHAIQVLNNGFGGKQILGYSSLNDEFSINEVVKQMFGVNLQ
- measurementNotes: 229E Mpro enzymatic assay (standard methods, SARS-CoV2 Mpro assay given as exemplary)
- Assay type: biochemical, human coronavirus (HCov) 229E
- conditionContext: 229E Mpro EC50
pEC50: −log10 of the molar value.
Each record here notes measured pEC50.
measuredProperty: pEC50

[
  {
    "molecule": "CC(C)(C)c1ccc(N(C(=O)[C@H]2CCCN2C#N)C(C(=O)N2CCC(N)CC2)c2cccnc2)cc1 (stereo partly drawn)",
    "measuredProperty": "pEC50",
    "measuredResult": "< 4.52"
  },
  {
    "molecule": "N#CC1(C(=O)N(c2ccc(S(F)(F)(F)(F)F)cc2)C(C(=O)NC2CCC(F)(F)CC2)c2cncc(F)c2)CC1 (single isomer, unassigned) [1289 Isomer 1]",
    "measuredProperty": "pEC50",
    "measuredResult": "< 4.52"
  },
  {
    "molecule": "CC(C)(C)OC(=O)N1CCN(C(=O)C(c2cccnc2)N(C(=O)[C@H]2CCCN2C#N)c2ccc(C(C)(C)C)cc2)CC1 (stereo partly drawn) [Compound 954b]",
    "measuredProperty": "pEC50",
    "measuredResult": "5.00 to 5.70"
  },
  {
    "molecule": "Cc1ccnc(C)c1C(C(=O)NC1CCC(F)(F)CC1)N(C(=O)[C@H]1C[C@@](C)(O)CN1C#N)c1ccc(S(F)(F)(F)(F)F)cc1 (stereo partly drawn) [Compound 997c]",
    "measuredProperty": "pEC50",
    "measuredResult": "> 5.70"
  },
  {
    "molecule": "CO[C@@H]1C[C@H](C(=O)N(c2ccc(S(F)(F)(F)(F)F)cc2)C(C(=O)NCCc2cc(F)cc(F)c2)c2cccnc2)N(C#N)C1 (single isomer, unassigned) [1196 Isomer 1]",
    "measuredProperty": "pEC50",
    "measuredResult": "> 5.70"
  },
  {
    "molecule": "N#CN1C[C@@H]2CC[C@@H]2[C@@H]1C(=O)N(c1ccc(S(F)(F)(F)(F)F)cc1)C(C(=O)NC1CCC(F)(F)CC1)c1cncc(F)c1 (single isomer, unassigned) [1097 Isomer 1]",
    "measuredProperty": "pEC50",
    "measuredResult": "> 5.70"
  }
]
